system: WT (C57BL/6J) mice; test: Acute safety/toxicity, single dose; type: in vivo; details: GJ103 50 mg/kg i.p., one dose, a week later
readout: ALP (U/L)

smilesentry=COc1cccc(-n2c(SCC(=O)O)nnc2-c2ccccn2)c1 unittext=U/L resultnumber=56

* * *

test system: WT (C57BL/6J) mice; experiment: Acute safety/toxicity, single dose; type: in vivo; conditions: GJ103 50 mg/kg i.p., one dose, a week later
readout: GLOB

smilesentry=COc1cccc(-n2c(SCC(=O)O)nnc2-c2ccccn2)c1 result="1.2 g/dL"

* * *

tested on: Mice; experiment: Chronic safety/toxicity, 4 weekly doses; assay type: in vivo; conditions: GJ103 50 mg/kg i.p., 4 weekly injections, 1 week after last
readout: ALP (U/L)

smilesentry=COc1cccc(-n2c(SCC(=O)O)nnc2-c2ccccn2)c1 measurementtarget=Mice unittext=U/L resultnumber=71

* * *

tested on: WT (C57BL/6J) mice; assay: Acute safety/toxicity, single dose; format: in vivo; conditions: GJ103 25 mg/kg i.p., one dose, a week later
readout: GLOB (g/dL)

smilesentry=COc1cccc(-n2c(SCC(=O)O)nnc2-c2ccccn2)c1 unittext=g/dL resultnumber=1.6

* * *

tested on: WT (C57BL/6J) mice; experiment: Acute safety/toxicity, single dose; assay type: in vivo; settings: GJ103 250 mg/kg i.p., one dose, a week later
readout: GLOB (g/dL)

compound="COc1cccc(-n2c(SCC(=O)O)nnc2-c2ccccn2)c1 [GJ103]" resultnumber=1.4

* * *

system: Mice; experiment: Chronic safety/toxicity, 4 weekly doses; format: in vivo; conditions: GJ103 25 mg/kg i.p., 4 weekly injections, 1 week after last
readout: ALP (U/L)

smilesentry=COc1cccc(-n2c(SCC(=O)O)nnc2-c2ccccn2)c1 measurementtarget=Mice resultnumber=69

* * *

test system: WT (C57BL/6J) mice; test: Acute safety/toxicity, single dose; type: in vivo; settings: GJ103 250 mg/kg i.p., one dose, a week later
readout: ALP (U/L)

smilesentry=COc1cccc(-n2c(SCC(=O)O)nnc2-c2ccccn2)c1 resultnumber=43

* * *

tested on: WT (C57BL/6J) mice; experiment: Acute safety/toxicity, single dose; format: in vivo; conditions: GJ103 10 mg/kg i.p., one dose, a week later
readout: ALT (U/L)

smilesentry=COc1cccc(-n2c(SCC(=O)O)nnc2-c2ccccn2)c1 resultnumber=29
